Data provenance: patent US9499502B2

Kindly state pKi for each of the entries shown.
target: soluble human BACE1 catalytic domain (Homo sapiens (Human), UniProt P56817); test: BACE1 HTRF FRET Assay; conditions: read-out: BACE1 Ki
Sequence (P56817 75-416): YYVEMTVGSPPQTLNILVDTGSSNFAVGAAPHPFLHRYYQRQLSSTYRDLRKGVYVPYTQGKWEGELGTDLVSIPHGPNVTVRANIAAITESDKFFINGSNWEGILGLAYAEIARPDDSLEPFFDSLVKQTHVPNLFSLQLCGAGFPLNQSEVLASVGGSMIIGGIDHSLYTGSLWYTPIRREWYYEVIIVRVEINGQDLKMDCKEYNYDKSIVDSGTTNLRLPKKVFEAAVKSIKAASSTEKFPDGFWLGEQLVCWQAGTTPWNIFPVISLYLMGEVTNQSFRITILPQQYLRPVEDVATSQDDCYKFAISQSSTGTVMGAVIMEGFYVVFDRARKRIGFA
In simple prose, pKi is minus the logarithm base ten of a concentration in moles per litre.

Problem: Can you share its pKi? I mean this compound: C[C@]1(CC2CCOCC2)C(=N)N[C@](C)(c2sc(-c3cncc(C#N)c3)cc2Cl)CS1(=O)=O [Example 27bw]
Solution: 6.79

Problem: Name the reported pKi value associated with the compound CC1(C)C(=N)N[C@](C)(c2sc(-c3cnn4c3CCC4)cc2Cl)CS1(=O)=O [Example 27m]
Solution: 5.27

Problem: Which pKi is listed for C[C@]1(Cc2cccc(Br)c2)C(=N)N[C@](C)(c2ccc(F)cc2F)CS1(=O)=O [Example 32j-a] ?
Solution: 5.68

Problem: Which pKi reading was recorded for the compound Cc1nnc(-c2cccc(-c3cc(F)c([C@]4(C)CS(=O)(=O)C(C)(C)C(=N)N4)s3)c2)o1 [Example 27ay] ?
Solution: 6.32

Problem: Bench note: what pKi did CC1(C)C(=N)N[C@](C)(c2sc(-c3cc(F)cc(-c4cnco4)c3)cc2F)CS1(=O)=O [Example 27at] show?
Solution: 7.59

Problem: Value lookup for pKi; key = C[C@@]1(c2ccccc2F)C(=N)N[C@](C)(c2sc(-c3cccc(C#N)c3)cc2F)CS1(=O)=O [Example 27bs-b]
Solution: 5.50

Problem: Fill blank: measured pKi of the compound CC1(C)C(=N)N[C@](C)(c2sc(-c3nnc(-c4ccc(Cl)cc4)o3)cc2F)CS1(=O)=O [Example 27bf] is ____.
Solution: 7.51

Problem: Sample CC1(C)C(=N)N[C@](C)(c2sc(-c3cccc(OC(F)(F)F)c3)cc2Cl)CS1(=O)=O [Example 27h] — what was its pKi?
Solution: 7.15

Problem: What value of measured pKi is listed for COc1ncc(-c2cc(Cl)c([C@]3(C)CS(=O)(=O)C(C)(C)C(=N)N3)s2)cn1 [Example 27y] ?
Solution: 5.77

Problem: # query: pKi of entry CC1(C)C(=N)N[C@](C)(c2sc(-c3cncc(C#N)c3)cc2F)CS1(=O)=O [Example 27ap]
Solution: 6.99

Problem: Recorded pKi for CC1(CC(F)(F)F)C(=N)N[C@](C)(c2sc(-c3ccc(F)c(C#N)c3)cc2F)CS1(=O)=O (stereo partly drawn) [Example 27bm-a] , please?
Solution: 7.46

Problem: # input compound: COc1cncc(-c2cc(F)c([C@]3(C)CS(=O)(=O)C(C)(C)C(=N)N3)s2)n1 [Example 27au] ; wanted: its pKi
Solution: 6.03

Problem: Which pKi is listed for CC1(C)C(=N)N[C@](C)(c2sc(-c3ccc(F)c(C#N)c3)cc2Cl)CS1(=O)=O [Example 27j] ?
Solution: 5.29

Problem: Would you kindly share the measured pKi for CC1(C)C(=N)N[C@](C)(c2sc(-c3cccc(C#N)c3)cc2F)CS1(=O)=O [Example 27aq] ?
Solution: 7.12

Problem: Returns the measured pKi for the input compound. Input: CC1(C)C(=N)N[C@](C)(c2sc(-c3csc4ccccc34)cc2Cl)CS1(=O)=O [Example 27g]
Solution: 5.69

Problem: Request the reported pKi associated with COCC1(COC)C(=N)N[C@](C)(c2sc(-c3cccc(-c4nnco4)c3)cc2Cl)CS1(=O)=O [Example 27bu]
Solution: 5.93

Problem: Data request, read-out pKi, for CC1(C)C(=N)N[C@](C)(c2sc(-c3cncc(-c4nnco4)c3)cc2F)CS1(=O)=O [Example 27az]
Solution: 7.85

Problem: If you can, please state the reported pKi value of COc1cccc([C@@]2(C)C(=N)N[C@](C)(c3ccc(F)cc3F)CS2(=O)=O)c1 [Example 32f-a] .
Solution: 5.92

Problem: # input compound: CC1(C)C(=N)N[C@](C)(c2sc(-c3nnc(-c4ccc(F)cc4)o3)cc2F)CS1(=O)=O [Example 27bg] ; wanted: its pKi
Solution: 7.10

Problem: Any idea what pKi was measured for C[C@@]1(c2cccc(Br)c2)C(=N)N[C@](C)(c2ccc(F)cc2F)CS1(=O)=O [Example 32g-b] ?
Solution: 5.05

Problem: Record request: pKi value, item C[C@]1(CC(F)(F)F)C(=N)N[C@](C)(c2sc(-c3cccc(-c4nnco4)c3)cc2F)CS1(=O)=O [Example 27bk-a]
Solution: 8.33

Problem: Entry CC1(C)C(=N)N[C@](C)(c2nc3ccc(-c4cccc(C#N)c4)cc3s2)CS1(=O)=O [Example 29c] : reported pKi = ?
Solution: 5.62

Problem: Name the reported pKi value associated with the compound Cc1nnc(-c2ccc(F)c(-c3cc(F)c([C@]4(C)CS(=O)(=O)C(C)(C)C(=N)N4)s3)c2)o1 [Example 27ax]
Solution: 6.07

Problem: Which pKi is listed for COc1cc(-c2cc(Cl)c([C@]3(C)CS(=O)(=O)C(C)(C)C(=N)N3)s2)ccn1 [Example 27k] ?
Solution: 6.03

Problem: Need pKi of CC1(C)C(=N)N[C@](C)(c2sc(-c3cnc(-c4ccc(F)cc4)o3)cc2Cl)CS1(=O)=O [Example 27v] , thanks.
Solution: 7.15

Problem: Name the recorded pKi for C[C@@]1(c2sc(-c3cccc(C#N)c3)cc2F)CS(=O)(=O)[C@@](C)(c2ccccn2)C(=N)N1 [Example 27bo-a] .
Solution: 6.88

Problem: Quick one: pKi for CC1(C)C(=N)N[C@](C)(c2sc(-c3cccc(-c4nnco4)c3)cc2F)CS1(=O)=O [Example 27ar] ?
Solution: 7.96

Problem: So what's the measured pKi for this one? COc1cccc2nc(-c3cc(Cl)c([C@]4(C)CS(=O)(=O)C(C)(C)C(=N)N4)s3)cn12 [Example 28c]
Solution: 6.97

Problem: What value of pKi has been reported for the following compound? C[C@@]1(c2ccc(F)cc2F)CS(=O)(=O)[C@@](C)(c2cccc(C(F)(F)F)c2)C(=N)N1 [Example 32h-a]
Solution: 6.44

Problem: // lookup pKi for CC1(C)C(=N)N[C@](C)(c2sc(-c3cccc(C(F)(F)F)c3)cc2Cl)CS1(=O)=O [Example 27e]
Solution: 7.13

###

Can you tell me inhibition at 10 µM for the items I'm about to list?
molecular target: purified human autoBACE-2 (Homo sapiens (Human)); experiment: BACE-2 Assay (BACE-HTRF assay); type: biochemical; settings: read-out: inhibition of BACE2 at 10 μM
Sequence (Q9Y5Z0 63-473): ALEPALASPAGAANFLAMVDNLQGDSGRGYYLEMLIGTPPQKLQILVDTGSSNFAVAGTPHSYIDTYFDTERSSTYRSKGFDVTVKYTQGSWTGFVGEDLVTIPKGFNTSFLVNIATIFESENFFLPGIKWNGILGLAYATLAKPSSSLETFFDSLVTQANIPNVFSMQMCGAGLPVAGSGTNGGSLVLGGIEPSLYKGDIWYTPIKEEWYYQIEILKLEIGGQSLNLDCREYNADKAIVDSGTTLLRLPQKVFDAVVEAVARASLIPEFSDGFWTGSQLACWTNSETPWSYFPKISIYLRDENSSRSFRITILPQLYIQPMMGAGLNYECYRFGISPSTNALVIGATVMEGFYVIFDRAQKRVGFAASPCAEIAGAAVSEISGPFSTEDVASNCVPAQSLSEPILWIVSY

Problem: Any idea what its inhibition at 10 µM is? The compound is Cc1nc2ccc(CC3(C)C(=N)N[C@](C)(c4cc(F)ccc4F)CS3(=O)=O)cc2s1 (mixture of isomers) [32b-a and 32b-b]
Solution: 1 to 24%

Problem: Look up inhibition at 10 µM: `C[C@@]1(c2cccc(F)c2)C(=N)N[C@](C)(c2cc(N)ccc2F)CS1(=O)=O`
Solution: 29 to 47%

Problem: Param item = `C[C@@]1(c2cccc(F)c2)C(=N)N[C@](C)(c2sc(Br)cc2F)CS1(=O)=O` ; retrieve measured inhibition at 10 µM.
Solution: 29 to 47%

Problem: May I ask what inhibition at 10 µM has been recorded for `C[C@@]1(C2CCC2)C(=N)N[C@](C)(c2cc(N)ccc2F)CS1(=O)=O` ?
Solution: 29 to 47%

Problem: Please look up its inhibition at 10 µM: COc1cccc([C@]2(C)C(=N)N[C@](C)(c3cc(F)ccc3F)CS2(=O)=O)c1 [Example 32e-b]
Solution: 1 to 24%

Problem: # input compound: `C[C@@]1(C2CC2)C(=N)N[C@](C)(c2cc([N+](=O)[O-])ccc2F)CS1(=O)=O` ; wanted: its inhibition at 10 µM
Solution: 29 to 47%

Problem: Tell me the measured inhibition at 10 µM of C[C@@]1(c2cccc(OCc3ccccc3)c2)C(=N)N[C@](C)(c2cc(F)ccc2F)CS1(=O)=O [Example 34d-b] , please.
Solution: 10%

Problem: Quick check: inhibition at 10 µM of `C[C@@]1(c2cccc(C(F)(F)F)c2)C(=N)N[C@](C)(c2cc(N)ccc2F)CS1(=O)=O` ?
Solution: 29 to 47%

Problem: Using the record for Cc1nc2cc(CC3(C)C(=N)N[C@](C)(c4cc(F)ccc4F)CS3(=O)=O)ccc2s1 (stereo partly shown) , report its inhibition at 10 µM.
Solution: 1 to 24%

Problem: Field request: inhibition at 10 µM | item: `C[C@@]1(c2ccccn2)C(=N)N[C@](C)(c2cc(N)ccc2F)CS1(=O)=O`
Solution: 29 to 47%

###

biological target: soluble human BACE1 catalytic domain (Homo sapiens (Human), UniProt P56817); experiment: BACE1 HTRF FRET Assay; conditions: read-out: BACE1 Ki
Provide the recorded Ki for the entries that follow.
Unit nM implied. Number only.

Problem: Reported Ki for soluble human BACE1 catalytic domain (Homo sapiens (Human), UniProt P56817), given C[C@@]1(c2cccc(F)c2)C(=N)N[C@](C)(c2sc(-c3cccc(C#N)c3)cc2F)CS1(=O)=O [Example 27br-b] ?
Solution: 4930

Problem: Enter reported Ki observed with soluble human BACE1 catalytic domain (Homo sapiens (Human), UniProt P56817) for CC1(C)C(=N)N[C@](C)(c2cc(-c3cccc(-c4cnco4)c3)cs2)CS1(=O)=O [Example 27ai]
Solution: 74

Problem: What Ki appears in the records for this compound with soluble human BACE1 catalytic domain (Homo sapiens (Human), UniProt P56817)? CC1(C)C(=N)N[C@](C)(c2sc(-c3cccc(-c4ncon4)c3)cc2F)CS1(=O)=O [Example 27ao]
Solution: 100

Problem: Record lookup: for soluble human BACE1 catalytic domain (Homo sapiens (Human), UniProt P56817), what Ki belongs to CC1(C)C(=N)N[C@](C)(c2sc(-c3cc(F)cc(F)c3)cc2Cl)CS1(=O)=O [Example 27i] ?
Solution: 170
